- assay system: Polyunsaturated fatty acid lipoxygenase ALOX15 (Homo sapiens)
- Sequence (P16050 whole entry): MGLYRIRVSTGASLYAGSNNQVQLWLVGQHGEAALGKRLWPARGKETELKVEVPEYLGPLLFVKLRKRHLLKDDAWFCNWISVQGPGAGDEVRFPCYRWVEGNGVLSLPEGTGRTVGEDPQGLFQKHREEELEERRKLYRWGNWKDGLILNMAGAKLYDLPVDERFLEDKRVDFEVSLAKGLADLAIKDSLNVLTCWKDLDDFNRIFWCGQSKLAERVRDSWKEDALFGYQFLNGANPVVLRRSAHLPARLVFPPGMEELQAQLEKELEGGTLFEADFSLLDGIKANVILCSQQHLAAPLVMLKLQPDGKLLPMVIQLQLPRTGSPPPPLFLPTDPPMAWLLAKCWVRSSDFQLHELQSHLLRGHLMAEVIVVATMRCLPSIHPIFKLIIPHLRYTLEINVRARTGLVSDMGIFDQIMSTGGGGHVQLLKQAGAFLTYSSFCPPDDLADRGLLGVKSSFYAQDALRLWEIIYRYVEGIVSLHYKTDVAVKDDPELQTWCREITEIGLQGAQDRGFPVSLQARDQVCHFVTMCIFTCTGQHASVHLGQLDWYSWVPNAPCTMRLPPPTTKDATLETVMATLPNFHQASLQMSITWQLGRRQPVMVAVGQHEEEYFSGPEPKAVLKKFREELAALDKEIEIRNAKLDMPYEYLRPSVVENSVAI
- assay text: Inhibition of recombinant human 15-LOX-1 expressed in Escherichia coli BL21(DE3) using linoleic acid as substrate preincubated for 10 mins followed by substrate addition
pIC50: −log10 of the molar value.
attribute measured: pIC50

>>> print(df.to_string())
                              smiles_string  attribute_measured  result
0  Nc1[nH]c(C(=O)c2ccccc2)c(-c2ccncc2)c1C(=O)c1cccc(Cl)c1               pIC50  < 4.00
1  Nc1[nH]c(C(=O)c2ccccc2)c(-c2cccc3ccccc23)c1C(=O)c1ccc(Cl)c(Cl)c1               pIC50  < 4.00

Given the compound NC(=O)c1c(N)[nH]c(C(=O)c2ccccc2)c1-c1ccc(Cl)cc1Cl , write its reported pIC50.
< 4.00
